# System: murine neural precursor cells (neurosphere cultures)
# assay.info: HTS of LOPAC library against secondary neurosphere cultures, MTT proliferation assay at 3 μM, day 7 (z score, P value)
# Type: cell-based, mouse
# measurement.setup: LOPAC library screen, 3 μM, MTT, neurosphere cultures
Counter-ions that a name gives are not always drawn.
// Z Score lookup, one value per entry

[[record]]
molecule = "CN(C)[C@@H]1C(O)=C(C(N)=O)C(=O)[C@@]2(O)C(O)=C3C(=O)c4c(O)ccc(Cl)c4[C@@H](O)[C@H]3C[C@@H]12 [Demeclocycline hydrochloride]"
experimental_endpoint = "Z Score"
result = "−0.06452"


Request: Requested read-out: Z Score. Entry: "O=C(O)c1cc(=O)c2ccccc2[nH]1"
Result: 0.7018

Request: And "Cc1nc2c([nH]1)c(=O)n(C)c(=O)n2Cc1ccco1" ?
Result: 1.025

Request: And "CCOC(=O)C1=C[C@]2(CC)CCCN3CCc4c(n1c1ccccc41)[C@@H]32" ?
Result: 0.4329

Request: And CC(CN(C)C)CN1c2ccccc2CCc2ccccc21 (stereo not shown) [Trimipramine maleate] ?
Result: 0.5677

Request: And CC(C)NCC(O)COc1ccc(CCOCC2CC2)cc1 (stereo not shown) [Betaxolol hydrochloride] ?
Result: 0.9838

Request: And C[C@]12CCC(=O)C=C1CC[C@@H]1[C@@H]2[C@@H](O)C[C@@]2(C)[C@H]1CC[C@]2(O)C(=O)COC(=O)CCC(=O)[O-].[Na+] [Hydrocortisone 21-hemisuccinate sodium] ?
Result: −0.04033
